assay: xn = mol fraction of the nth substance listed; conditions: 298.15 K; 100.5 kPa; Liquid; x1 = 0.2
The following compounds are listed with their measured viscosity values.
# unit: mPa·s | format: bare number

Would you please look over these solved cases?
[
  {
    "Compound": "CCOC(=O)Cc1ccccc1 [ethyl phenylacetate] + CCO",
    "viscosity [mPa·s]": 1.244
  },
  {
    "Compound": "CCCC(=O)OCCC(C)C [3-methylbutyl butanoate] + CCO",
    "viscosity [mPa·s]": 0.993
  },
  {
    "Compound": "CC(=O)OCCC(C)C [3-methylbutyl ethanoate] + CCO",
    "viscosity [mPa·s]": 0.866
  },
  {
    "Compound": "CCCCCCCC(=O)OCC [ethyl octanoate] + CCO",
    "viscosity [mPa·s]": 1.098
  },
  {
    "Compound": "CCCCCC(=O)OCC [ethyl hexanoate] + CCO",
    "viscosity [mPa·s]": 0.926
  }
]

# ---- query compound ----
If you can, please state the reported viscosity value of CCOC(=O)c1ccccc1 [ethyl benzoate] + CCO .
1.176

###

Listing of recorded mass density by entry.
test: xn = mol fraction of the nth substance listed; details: 298.15 K; 101 kPa; Liquid; x1 = 0.3
Note: unit kg/m3 is implicit; provide only the numeric part.

[
  {
    "Compound": "CCCC(=O)OCCC(C)C [3-methylbutyl butanoate] + CCO",
    "mass density [kg/m3]": 826.34
  },
  {
    "Compound": "CCCCCC(=O)OCC [ethyl hexanoate] + CCO",
    "mass density [kg/m3]": 828.72
  },
  {
    "Compound": "CCOC(=O)Cc1ccccc1 [ethyl phenylacetate] + CCO",
    "mass density [kg/m3]": 917.42
  },
  {
    "Compound": "CCOC(=O)c1ccccc1 [ethyl benzoate] + CCO",
    "mass density [kg/m3]": 919.07
  }
]

API: the following record is the query input.
Field request: mass density | item: CCCCCCCC(=O)OCC [ethyl octanoate] + CCO
829.87

###

experiment: xn = mol fraction of the nth substance listed; details: 308.15 K; 101 kPa; Liquid; x1 = 0.35
Metric: mass density (kg/m3)
# value in kg/m3; strip the unit string

# example entries with known answers
[
  {
    "Compound": "CCOC(=O)c1ccccc1 [ethyl benzoate] + CCO",
    "mass density (kg/m3)": 924.02
  },
  {
    "Compound": "CCCCCC(=O)OCC [ethyl hexanoate] + CCO",
    "mass density (kg/m3)": 823.82
  },
  {
    "Compound": "CCOC(=O)Cc1ccccc1 [ethyl phenylacetate] + CCO",
    "mass density (kg/m3)": 921.36
  },
  {
    "Compound": "CCCCCCCC(=O)OCC [ethyl octanoate] + CCO",
    "mass density (kg/m3)": 825.02
  }
]

Continue with the compound presented below.
Fill in the blank: the reported mass density of CCCC(=O)OCCC(C)C [3-methylbutyl butanoate] + CCO is ____.
821.11

###

assay: xn = mol fraction of the nth substance listed; conditions: 298.15 K; 100.5 kPa; Liquid; x1 = 0.3
Could you please mark T for values of viscosity below 0.9 mPa·s and F for values at or above it?

[
  {
    "Compound": "CCOC(=O)Cc1ccccc1 [ethyl phenylacetate] + CCO",
    "Discrete label": "F"
  }
]

Given CCCCCCCC(=O)OCC [ethyl octanoate] + CCO , is recorded viscosity strictly lower than 0.9 mPa·s?
F

Now the same for CCCC(=O)OCCC(C)C [3-methylbutyl butanoate] + CCO
F

// repeat for CCOC(=O)c1ccccc1 [ethyl benzoate] + CCO and report
F

Would you kindly repeat that for CC(=O)OCCC(C)C [3-methylbutyl ethanoate] + CCO ?
T

###

assay: xn = mol fraction of the nth substance listed; settings: 298.15 K; 101 kPa; Liquid; x1 = 0.4
± gives the expanded uncertainty stated by the source.
Metric: mass density

[
  {
    "Compound": "CCOC(=O)c1ccccc1 [ethyl benzoate] + CCO",
    "mass density": "946.47 ± 0.18 kg/m3"
  },
  {
    "Compound": "CCCCCC(=O)OCC [ethyl hexanoate] + CCO",
    "mass density": "837.18 ± 0.22 kg/m3"
  },
  {
    "Compound": "CCCC(=O)OCCC(C)C [3-methylbutyl butanoate] + CCO",
    "mass density": "833.85 ± 0.24 kg/m3"
  },
  {
    "Compound": "CCCCCCCC(=O)OCC [ethyl octanoate] + CCO",
    "mass density": "837.55 ± 0.23 kg/m3"
  }
]

Please look at the following compound next.
For the compound shown here, CCOC(=O)Cc1ccccc1 [ethyl phenylacetate] + CCO , give the reported mass density.
942.79 ± 0.22 kg/m3

###

assay: xn = mol fraction of the nth substance listed; details: 308.15 K; 100.5 kPa; Liquid; x1 = 0.85
Could you please mark Satisfied for values of viscosity below 1 mPa·s and Not satisfied for values at or above it?

[
  {
    "Compound": "CC(=O)OCCC(C)C [3-methylbutyl ethanoate] + CCO",
    "Discrete label": "Satisfied"
  },
  {
    "Compound": "CCOC(=O)c1ccccc1 [ethyl benzoate] + CCO",
    "Discrete label": "Not satisfied"
  },
  {
    "Compound": "CCOC(=O)Cc1ccccc1 [ethyl phenylacetate] + CCO",
    "Discrete label": "Not satisfied"
  },
  {
    "Compound": "CCCC(=O)OCCC(C)C [3-methylbutyl butanoate] + CCO",
    "Discrete label": "Satisfied"
  },
  {
    "Compound": "CCCCCCCC(=O)OCC [ethyl octanoate] + CCO",
    "Discrete label": "Not satisfied"
  }
]

Now turn to the next compound.
Would you kindly verify if viscosity of CCCCCC(=O)OCC [ethyl hexanoate] + CCO is strictly less than 1 mPa·s?
Satisfied

###

test: xn = mol fraction of the nth substance listed; details: 298.15 K; 101 kPa; Liquid; x1 = 0.25
Measured mass density, listed per entry for reference.
Write the answer as a number in kg/m3, unit excluded.

[
  {
    "Compound": "CCCCCC(=O)OCC [ethyl hexanoate] + CCO",
    "mass density, kg/m3": 823.72
  },
  {
    "Compound": "CCOC(=O)c1ccccc1 [ethyl benzoate] + CCO",
    "mass density, kg/m3": 903.11
  },
  {
    "Compound": "CCCC(=O)OCCC(C)C [3-methylbutyl butanoate] + CCO",
    "mass density, kg/m3": 821.8
  }
]

Entry CCOC(=O)Cc1ccccc1 [ethyl phenylacetate] + CCO has what mass density?
902.37

Further, for CCCCCCCC(=O)OCC [ethyl octanoate] + CCO ?
825.17

###

Below, each entry is listed alongside its reported viscosity.
assay: xn = mol fraction of the nth substance listed; conditions: 318.15 K; 100.5 kPa; Liquid; x1 = 0.95
Quick note: give the figure in mPa·s, leave out the unit.

For orientation, consider the following solved cases.
[
  {
    "Molecule": "CCCCCCCC(=O)OCC [ethyl octanoate] + CCO",
    "Units": "mPa·s",
    "viscosity": 1.013
  },
  {
    "Molecule": "CCCC(=O)OCCC(C)C [3-methylbutyl butanoate] + CCO",
    "Units": "mPa·s",
    "viscosity": 0.817
  },
  {
    "Molecule": "CCCCCC(=O)OCC [ethyl hexanoate] + CCO",
    "Units": "mPa·s",
    "viscosity": 0.712
  },
  {
    "Molecule": "CC(=O)OCCC(C)C [3-methylbutyl ethanoate] + CCO",
    "Units": "mPa·s",
    "viscosity": 0.625
  },
  {
    "Molecule": "CCOC(=O)Cc1ccccc1 [ethyl phenylacetate] + CCO",
    "Units": "mPa·s",
    "viscosity": 1.605
  }
]

Now turn to the next molecule.
GET /values?readout=viscosity&item= CCOC(=O)c1ccccc1 [ethyl benzoate] + CCO
1.335

###

assay: xn = mol fraction of the nth substance listed; conditions: 318.15 K; 100.5 kPa; Liquid; x1 = 0.15
List of viscosity values.
Kindly provide the numeric value in mPa·s only, without the unit symbol.

[
  {
    "Compound": "CCOC(=O)Cc1ccccc1 [ethyl phenylacetate] + CCO",
    "viscosity / mPa·s": 0.855
  },
  {
    "Compound": "CCCCCCCC(=O)OCC [ethyl octanoate] + CCO",
    "viscosity / mPa·s": 0.78
  },
  {
    "Compound": "CCOC(=O)c1ccccc1 [ethyl benzoate] + CCO",
    "viscosity / mPa·s": 0.812
  },
  {
    "Compound": "CCCCCC(=O)OCC [ethyl hexanoate] + CCO",
    "viscosity / mPa·s": 0.691
  },
  {
    "Compound": "CCCC(=O)OCCC(C)C [3-methylbutyl butanoate] + CCO",
    "viscosity / mPa·s": 0.715
  }
]

Here's the next entry for you.
Would you kindly share the measured viscosity for CC(=O)OCCC(C)C [3-methylbutyl ethanoate] + CCO ?
0.651
